Test system: Staphylococcus aureus
Experiment: Antibacterial activity against normal phenotype Staphylococcus aureus in cation-adjusted MH 2 broth at pH 5.5 after 24 hrs by broth microdilution method
Type: functional
ASSAY METRIC: MIC (µg/mL)

* CN[C@H](CC(C)C)C(=O)N[C@H]1C(=O)N[C@@H](CC(N)=O)C(=O)N[C@H]2C(=O)N[C@H]3C(=O)N[C@H](C(=O)N[C@H](C(=O)O)c4cc(O)cc(O)c4-c4cc3ccc4O)[C@H](O[C@H]3C[C@](C)(N)[C@@H](O)[C@H](C)O3)c3ccc(c(Cl)c3)Oc3cc2cc(c3O[C@@H]2O[C@H](CO)[C@@H](O)[C@H](O)[C@H]2O[C@H]2C[C@](C)(NCc3ccc(-c4ccc(Cl)cc4)cc3)[C@@H](O)[C@H](C)O2)Oc2ccc(cc2Cl)[C@H]1O | 0.03
* CN(C)c1cc(NC(=O)CNC(C)(C)C)c(O)c2c1C[C@H]1C[C@H]3[C@H](N(C)C)C(O)=C(C(N)=O)C(=O)[C@@]3(O)C(O)=C1C2=O | 0.125
* COc1c(N2C[C@@H]3CCCN[C@@H]3C2)c(F)cc2c(=O)c(C(=O)O)cn(C3CC3)c12 | 2
* CCC[C@@H]1C[C@@H](C(=O)N[C@@H]([C@H]2O[C@H](SC)[C@H](O)[C@@H](O)[C@H]2O)[C@H](C)Cl)N(C)C1 | 1

* * *

Measured MIC values are reported for all entries that follow.
Test system: Staphylococcus aureus
Experiment: Antibacterial activity against Staphylococcus aureus SCV isolated from cystic fibrosis patient at pH 7.4 after 48 hrs by broth microdilution method in absence of thymidine
Assay type: functional
ASSAY METRIC: MIC (µg/mL)

• CN[C@H](CC(C)C)C(=O)N[C@H]1C(=O)N[C@@H](CC(N)=O)C(=O)N[C@H]2C(=O)N[C@H]3C(=O)N[C@H](C(=O)N[C@H](C(=O)O)c4cc(O)cc(O)c4-c4cc3ccc4O)[C@H](O[C@H]3C[C@](C)(N)[C@@H](O)[C@H](C)O3)c3ccc(c(Cl)c3)Oc3cc2cc(c3O[C@@H]2O[C@H](CO)[C@@H](O)[C@H](O)[C@H]2O[C@H]2C[C@](C)(NCc3ccc(-c4ccc(Cl)cc4)cc3)[C@@H](O)[C@H](C)O2)Oc2ccc(cc2Cl)[C@H]1O = 0.015
• Cc1onc(-c2ccccc2)c1C(=O)N[C@@H]1C(=O)N2[C@@H]1SC(C)(C)[C@@H]2C(=O)O = 0.125
• CO[C@H]1/C=C/O[C@@]2(C)Oc3c(C)c(O)c4c(O)c(c(/C=N/N5CCN(C)CC5)c(O)c4c3C2=O)NC(=O)/C(C)=C\C=C\[C@H](C)[C@H](O)[C@@H](C)[C@@H](O)[C@@H](C)[C@H](OC(C)=O)[C@@H]1C = 0.0005
• CCCCCCCCCCNCCN[C@@]1(C)C[C@H](O[C@H]2[C@H](Oc3c4cc5cc3Oc3ccc(cc3Cl)[C@@H](O)[C@@H](NC(=O)[C@@H](CC(C)C)NC)C(=O)N[C@@H](CC(N)=O)C(=O)N[C@H]5C(=O)N[C@H]3C(=O)N[C@H](C(=O)N[C@H](C(=O)O)c5cc(O)c(CNCP(=O)(O)O)c(O)c5-c5cc3ccc5O)[C@H](O)c3ccc(c(Cl)c3)O4)O[C@H](CO)[C@@H](O)[C@@H]2O)O[C@@H](C)[C@H]1O = 0.125

* * *

We begin with a simple list: items and their reported MIC.
Tested on: Staphylococcus aureus
Assay: Antibacterial activity against Staphylococcus aureus SCV isolated from cystic fibrosis patient at pH 7.4 after 48 hrs by broth microdilution method in absence of thymidine
Type: functional
ASSAY METRIC: MIC (µg/mL)

* COc1c(N2C[C@@H]3CCCN[C@@H]3C2)c(F)cc2c(=O)c(C(=O)O)cn(C3CC3)c12 [MOXIFLOXACIN] | 0.125
* CCCCCCCCCC(=O)N[C@@H](Cc1c[nH]c2ccccc12)C(=O)N[C@H](CC(N)=O)C(=O)N[C@@H](CC(=O)O)C(=O)N[C@@H]1C(=O)NCC(=O)N[C@@H](CCCN)C(=O)N[C@@H](CC(=O)O)C(=O)N[C@H](C)C(=O)N[C@@H](CC(=O)O)C(=O)NCC(=O)N[C@H](CO)C(=O)N[C@@H]([C@H](C)CC(=O)O)C(=O)N[C@@H](CC(=O)c2ccccc2N)C(=O)O[C@@H]1C | 0.125
* CN(C)c1cc(NC(=O)CNC(C)(C)C)c(O)c2c1C[C@H]1C[C@H]3[C@H](N(C)C)C(O)=C(C(N)=O)C(=O)[C@@]3(O)C(O)=C1C2=O [TIGECYCLINE] | 0.125
* CC(=O)O[C@H]1C[C@@]2(C)[C@@H](C[C@@H](O)[C@H]3[C@@]4(C)CC[C@@H](O)[C@@H](C)[C@@H]4CC[C@@]32C)/C1=C(\CCC=C(C)C)C(=O)O [FUSIDIC ACID] | 0.03
* CCC[C@@H]1C[C@@H](C(=O)N[C@@H]([C@H]2O[C@H](SC)[C@H](O)[C@@H](O)[C@H]2O)[C@H](C)Cl)N(C)C1 [CLINDAMYCIN] | 0.125

* * *

Test system: Staphylococcus aureus
Test: Antibacterial activity against Staphylococcus aureus SCV isolated from cystic fibrosis patient in cation-adjusted MH 2 broth assessed as log reduction of extracellular CFU after 5 hrs
Format: functional
ASSAY METRIC: log10cfu

• CN(C)c1cc(NC(=O)CNC(C)(C)C)c(O)c2c1C[C@H]1C[C@H]3[C@H](N(C)C)C(O)=C(C(N)=O)C(=O)[C@@]3(O)C(O)=C1C2=O [TIGECYCLINE] = 1
• CC(=O)O[C@H]1C[C@@]2(C)[C@@H](C[C@@H](O)[C@H]3[C@@]4(C)CC[C@@H](O)[C@@H](C)[C@@H]4CC[C@@]32C)/C1=C(\CCC=C(C)C)C(=O)O [FUSIDIC ACID] = 1
• CCC[C@@H]1C[C@@H](C(=O)N[C@@H]([C@H]2O[C@H](SC)[C@H](O)[C@@H](O)[C@H]2O)[C@H](C)Cl)N(C)C1 [CLINDAMYCIN] = 2
• CC(=O)NC[C@H]1CN(c2ccc(N3CCOCC3)c(F)c2)C(=O)O1 [LINEZOLID] = 1

* * *

Test: Fraction unbound in human plasma
fraction unbound values for the compounds below.
ASSAY METRIC: fraction unbound

* CCCCCCCCCC(=O)N[C@@H](Cc1c[nH]c2ccccc12)C(=O)N[C@H](CC(N)=O)C(=O)N[C@@H](CC(=O)O)C(=O)N[C@@H]1C(=O)NCC(=O)N[C@@H](CCCN)C(=O)N[C@@H](CC(=O)O)C(=O)N[C@H](C)C(=O)N[C@@H](CC(=O)O)C(=O)NCC(=O)N[C@H](CO)C(=O)N[C@@H]([C@H](C)CC(=O)O)C(=O)N[C@@H](CC(=O)c2ccccc2N)C(=O)O[C@@H]1C | 0.1
* CCC[C@@H]1C[C@@H](C(=O)N[C@@H]([C@H]2O[C@H](SC)[C@H](O)[C@@H](O)[C@H]2O)[C@H](C)Cl)N(C)C1 | 0.1
* CCCCCCCCCCNCCN[C@@]1(C)C[C@H](O[C@H]2[C@H](Oc3c4cc5cc3Oc3ccc(cc3Cl)[C@@H](O)[C@@H](NC(=O)[C@@H](CC(C)C)NC)C(=O)N[C@@H](CC(N)=O)C(=O)N[C@H]5C(=O)N[C@H]3C(=O)N[C@H](C(=O)N[C@H](C(=O)O)c5cc(O)c(CNCP(=O)(O)O)c(O)c5-c5cc3ccc5O)[C@H](O)c3ccc(c(Cl)c3)O4)O[C@H](CO)[C@@H](O)[C@@H]2O)O[C@@H](C)[C@H]1O | 0.07
* CN[C@H](CC(C)C)C(=O)N[C@H]1C(=O)N[C@@H](CC(N)=O)C(=O)N[C@H]2C(=O)N[C@H]3C(=O)N[C@H](C(=O)N[C@H](C(=O)O)c4cc(O)cc(O)c4-c4cc3ccc4O)[C@H](O)c3ccc(c(Cl)c3)Oc3cc2cc(c3O[C@@H]2O[C@H](CO)[C@@H](O)[C@H](O)[C@H]2O[C@H]2C[C@](C)(N)[C@H](O)[C@H](C)O2)Oc2ccc(cc2Cl)[C@H]1O | 0.5
* Cc1onc(-c2ccccc2)c1C(=O)N[C@@H]1C(=O)N2[C@@H]1SC(C)(C)[C@@H]2C(=O)O | 0.07
* CN[C@H](CC(C)C)C(=O)N[C@H]1C(=O)N[C@@H](CC(N)=O)C(=O)N[C@H]2C(=O)N[C@H]3C(=O)N[C@H](C(=O)N[C@H](C(=O)O)c4cc(O)cc(O)c4-c4cc3ccc4O)[C@H](O[C@H]3C[C@](C)(N)[C@@H](O)[C@H](C)O3)c3ccc(c(Cl)c3)Oc3cc2cc(c3O[C@@H]2O[C@H](CO)[C@@H](O)[C@H](O)[C@H]2O[C@H]2C[C@](C)(NCc3ccc(-c4ccc(Cl)cc4)cc3)[C@@H](O)[C@H](C)O2)Oc2ccc(cc2Cl)[C@H]1O | 0.12
* CO[C@H]1/C=C/O[C@@]2(C)Oc3c(C)c(O)c4c(O)c(c(/C=N/N5CCN(C)CC5)c(O)c4c3C2=O)NC(=O)/C(C)=C\C=C\[C@H](C)[C@H](O)[C@@H](C)[C@@H](O)[C@@H](C)[C@H](OC(C)=O)[C@@H]1C | 0.15
* CC(=O)O[C@H]1C[C@@]2(C)[C@@H](C[C@@H](O)[C@H]3[C@@]4(C)CC[C@@H](O)[C@@H](C)[C@@H]4CC[C@@]32C)/C1=C(\CCC=C(C)C)C(=O)O | 0.05
* CN(C)c1cc(NC(=O)CNC(C)(C)C)c(O)c2c1C[C@H]1C[C@H]3[C@H](N(C)C)C(O)=C(C(N)=O)C(=O)[C@@]3(O)C(O)=C1C2=O | 0.2
* CC(=O)NC[C@H]1CN(c2ccc(N3CCOCC3)c(F)c2)C(=O)O1 | 0.31
